tgt: T1, human ferroportin (SLC40A1) fused with GFP, stably expressed in HEK293 cells (human, UniProt Q9NP59 1-571)
T1 sequence (looked up): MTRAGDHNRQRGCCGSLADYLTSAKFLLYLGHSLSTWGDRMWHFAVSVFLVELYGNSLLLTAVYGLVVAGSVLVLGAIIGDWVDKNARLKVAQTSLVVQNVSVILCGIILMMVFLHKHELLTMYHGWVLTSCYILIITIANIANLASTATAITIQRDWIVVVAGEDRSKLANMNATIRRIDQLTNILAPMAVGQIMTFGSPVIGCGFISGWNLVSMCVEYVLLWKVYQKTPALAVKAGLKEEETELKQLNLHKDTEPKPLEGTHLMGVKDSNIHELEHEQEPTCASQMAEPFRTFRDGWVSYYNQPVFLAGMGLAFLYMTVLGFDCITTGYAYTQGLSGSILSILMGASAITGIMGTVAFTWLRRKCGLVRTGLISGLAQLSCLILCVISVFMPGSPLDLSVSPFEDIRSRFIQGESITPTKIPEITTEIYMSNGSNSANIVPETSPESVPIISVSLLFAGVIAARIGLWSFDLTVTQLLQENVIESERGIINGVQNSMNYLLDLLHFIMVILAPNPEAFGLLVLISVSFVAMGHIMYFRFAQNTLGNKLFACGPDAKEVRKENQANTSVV
assay: cell-based or functional assay
Positions of bridges follow the written chain, without caps; N, C: chain ends. Non-standard residues stand in square brackets, D forms with d. Groups on a side chain read outwards from the residue. Primed or numbered codes have the meaning given here. *: point of attachment. PEG12 = NCCOCCOCCOCCOCCOCCOCCOCCOCCOCCOCCOCCOCCC(=O)O; Palmitoyl = CCCCCCCCCCCCCCCC(=O)*; Isovaleryl = CC(C)CC(=O)*; PEG2′ = not defined here
measured_metric: FPN IC50 (nM)

Recorded results for 2 binders are shown here.
binder="DTHFPCIXFKC (Isovaleric acid-DTHFPCI-[Orn]-[Phe]-Lys[PEG11-Palm]-C-NH2) [Compd ID 11]" measured_metric="FPN IC50" measured_value=4
binder="DTHXPCIKXKKC (Isovaleric acid-DTH-[Dpa]-PCI-[(D)Lys-Peg11*]-[b-hPhe]-[Lys(Ahx-Palm)]-[(D)Lys-Peg11*]-C-NH2 (*PEG11-OMe)) [Compd ID 166]" measured_metric="FPN IC50" measured_value=6

I: DTHFPCIKFKPC (Isovaleric acid-DTHFPCIKF-Lys[PEG11-Palm]-PC-NH2) [Compd ID 7]
II: Isovaleryl-DTHFPCI[dK]FK([PEG12-Palmitoyl])RC-NH2 (disulfide 6-12 (inferred)) [Compd ID 79]
III: DTHXPCIKXKKC (Isovaleric acid-DTH-[Dpa]-PCI-[(D)Lys-Ac]-[b-hPhe]-[Lys(Peg11-Palm)]-[(D)Lys-Ac]-C-NH2) [Compd ID 159]
IV: Isovaleryl-DTHFPCI[dK]FK([PEG2′-Palmitoyl])KC-NH2 (disulfide 6-12 (inferred)) [Compd ID 87]
Input line: // sort entries: FPN IC50, high to low Provide your answer as the labels ordered per the instruction.
Output line: II, IV, I, III
